Reported log10 IC50 is given for each of the following compounds.
# study-target: BTK enzyme (recombinant full-length BTK, hBTK) (Homo sapiens)
# Construct: recombinant protein from baculovirus-transfected Sf9 cells: full-length BTK, 6HIS-tag cleaved; 6HIS (cleaved yes); made in house; host or cells: baculovirus-transfected Sf9 cells
# protocol-notes: BTK enzyme activity assay, LANCE TR-FRET
# Assay type: biochemical
# experimental-conditions: 50 pM hBTK, 2 μM biotin-A5-peptide, 25 μM ATP; 60 min compound & enzyme incubation; read-out: IC50 BTK activity value
Values are log10 of IC50 in nM.

Example entries and their recorded answers appear below.
Nc1nccn2c([C@H]3CC[C@@H]4C[C@H](O)C(=O)N4C3)nc(-c3ccc(C(=O)Nc4cc(C(F)(F)F)ccn4)cc3)c12 :: 0.61
Cc1cc(-c2nc([C@@H]3CC[C@H]4CCC(=O)N4C3)n3ccnc(N)c23)ccc1C(=O)Nc1cc(C#N)ccn1 :: -0.01
CCc1nsc(NC(=O)c2ccc(-c3nc([C@@H]4CC[C@H]5CCC(=O)N5C4)n4ccnc(N)c34)cc2)n1 :: 1.44
CC(F)(F)c1ccnc(NC(=O)c2ccc(-c3nc([C@@H]4CC[C@H]5CCC(=O)N5C4)n4ccnc(N)c34)cc2F)c1 :: -0.27
CC(C)c1nsc(NC(=O)c2ccc(-c3nc([C@@H]4CC[C@H]5CCC(=O)N5C4)n4ccnc(N)c34)cc2)n1 :: 1.84

Consider now this further compound.
I looked up C[C@@H]1OC(=O)N2C[C@H](c3nc(-c4ccc(C(=O)Nc5cc(C(F)(F)F)ccn5)cc4)c4c(N)nccn34)CC[C@@H]12 and its log10 IC50 for BTK enzyme (recombinant full-length BTK, hBTK) (Homo sapiens) was -0.85

* * *

# study-target: BTK enzyme (recombinant full-length BTK, hBTK) (Homo sapiens, UniProt Q06187)
# Construct: recombinant protein from baculovirus-transfected Sf9 cells: full-length BTK, 6HIS-tag cleaved; 6HIS (cleaved yes); made in house; host or cells: baculovirus-transfected Sf9 cells
# Sequence (Q06187 whole entry): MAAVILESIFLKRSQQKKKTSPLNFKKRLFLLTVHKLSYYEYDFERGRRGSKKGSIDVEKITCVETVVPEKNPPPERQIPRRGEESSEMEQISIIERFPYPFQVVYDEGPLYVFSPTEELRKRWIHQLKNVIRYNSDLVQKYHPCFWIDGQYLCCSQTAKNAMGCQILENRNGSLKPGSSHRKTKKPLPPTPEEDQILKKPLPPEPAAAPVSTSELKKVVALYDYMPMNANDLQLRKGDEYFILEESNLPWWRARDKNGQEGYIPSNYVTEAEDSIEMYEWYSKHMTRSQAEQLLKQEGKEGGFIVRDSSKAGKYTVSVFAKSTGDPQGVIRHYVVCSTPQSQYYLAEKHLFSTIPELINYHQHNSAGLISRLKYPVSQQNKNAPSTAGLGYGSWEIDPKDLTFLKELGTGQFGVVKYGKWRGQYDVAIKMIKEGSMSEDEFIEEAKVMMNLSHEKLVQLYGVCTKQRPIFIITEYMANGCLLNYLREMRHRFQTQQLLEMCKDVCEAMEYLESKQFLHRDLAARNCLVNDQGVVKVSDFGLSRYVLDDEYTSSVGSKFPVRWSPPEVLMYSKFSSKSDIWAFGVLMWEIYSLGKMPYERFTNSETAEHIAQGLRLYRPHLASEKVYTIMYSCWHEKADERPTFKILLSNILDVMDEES
# protocol-notes: BTK enzyme activity assay, LANCE TR-FRET
# Assay type: biochemical
# experimental-conditions: 50 pM hBTK, 2 μM biotin-A5-peptide, 25 μM ATP; 60 min compound & enzyme incubation; read-out: IC50 BTK activity value
pIC50: −log10 of the molar value.
Given measured pIC50, output label 1 if it is greater than or equal to 9 and label 0 if not.

Please review the following examples before continuing.
COc1cc(C(=O)Nc2cc(C3CCC3)ccn2)ccc1-c1nc([C@@H]2CC[C@H]3CCC(=O)N3C2)n2c(Cl)cnc(N)c12 [Example 209] :: label 1
Nc1nccn2c([C@@H]3CC[C@H]4CCC(=O)N4C3)nc(-c3ccc(C(=O)Nc4nc(C(F)(F)F)c[nH]4)cc3)c12 [Example 177] :: label 0
C[C@H]1OC(=O)N2C[C@H](c3nc(-c4ccc(C(=O)Nc5cc(C6CC6)ccn5)cc4)c4c(N)nccn34)CC[C@@H]12 [Example 47] :: label 1
CCOc1cc(C(=O)Nc2cc(C(F)(F)F)ccn2)ccc1-c1nc([C@@H]2CC[C@H]3CCC(=O)N3C2)n2c(Cl)cnc(N)c12 [Example 128] :: label 1

// next entry
Is it the case that Cn1nc(NC(=O)c2ccc(-c3nc([C@@H]4CC[C@H]5CCC(=O)N5C4)n4ccnc(N)c34)c(Cl)c2)cc1C(F)(F)F [Example 190] has pIC50 reaching or exceeding 9?
label 0
